Tested on: SNRK
condition-notes: concentration: 1 μM, replicates: in singlicate; n = 1;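 note: KINOMEscan kinase panel screen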
readout-kind: %Inh (%)
Provide only the numeric value, understood in %.

The examples below pair each entry with its known result.
molecule: COc1ccc(Nc2ncc(C#N)c(Nc3ccccc3C(N)=O)n2)cc1N1CCN(C)CC1.Cl [GSK1558669]
reported-result: 85

molecule: Cc1c(Cn2c(C)nn3c(=O)cc(N4CCOC(C)C4)nc23)cccc1C(F)(F)F (stereo not drawn) [GSK2344444]
reported-result: 0

molecule: O=C(Nc1n[nH]c2cc(-c3cccc(F)c3)ccc12)C1CC1 [SB-735464]
reported-result: 0

molecule: O=c1cc(N2CCOCC2)nc2n(Cc3cccc(F)c3)ccn12 [GSK2297430]
reported-result: 0

molecule: O=C1NC(=O)C(N2CCc3ccccc32)=C1c1cccc(Cl)c1 [SB-408010]
reported-result: 0

Input COc1ccc(S(=O)(=O)NC2CCN(c3cc(C)nc(Nc4cccc(C#N)c4)n3)CC2)cc1.O=C(O)C(F)(F)F [GSK1653539] . Output %Inh: 0

----------
Test system: CAMK2D
condition-notes: concentration: 1 μM, replicates: in singlicate; n = 1
readout-kind: %Inh
Answer as a quantity: numeral, then unit.

Input `NS(=O)(=O)c1cccc(-c2ccc3nccc(-c4cccc(S(N)(=O)=O)c4)c3c2)c1` . Output %Inh: 0%

Input `O=c1cc(N2CCOCC2)nc2n(Cc3cccc4ccccc34)ccn12` . Output %Inh: 0%

Input `O=C(NCCCN1CCOCC1)c1cccc(Nc2nccc(Nc3ccc(Oc4ccccc4)cc3)n2)c1` . Output %Inh: 2%

Input `N#Cc1c(N2CCOCC2)sc(-c2ccn[nH]2)c1-c1ccc(Cl)cc1` . Output %Inh: 47%

Input `CCc1nc(-c2cccc(C)c2)c(-c2ccnc(NCc3ccccc3)c2)s1` . Output %Inh: 0%

Input `COc1ccc(COc2cc(-n3cnc4ccccc43)sc2C(N)=O)cc1` . Output %Inh: 0%

Input `C[C@@H](Oc1cc(-n2cnc3ccc(NC(=O)NC(C)(C)C)cc32)sc1C(N)=O)c1ccccc1Cl` . Output %Inh: 18%

----------
We begin with a simple list: items and their reported %Inh.
System: TRPM6
condition-notes: concentration: 1 μM, replicates: in singlicate; n = 1
Provide only the numeric value, understood in %.

The examples below pair each entry with its known result.
molecule: NS(=O)(=O)CCc1cccc(Nc2nccc(-c3c(-c4cccc(NC(=O)c5c(F)cccc5F)c4)nn4ccccc34)n2)c1
experimental-system: TRPM6
readout-kind: %Inh
reported-result: 56
--
molecule: Nc1nc(-c2ccc3c(N)n[nH]c3c2)cc(N2CCCC2)n1
experimental-system: TRPM6
readout-kind: %Inh
reported-result: 0
--
molecule: COc1ccc(Nc2nccc(N3CCC(NC(=O)Nc4cccc(C(C)=O)c4)C3)n2)cc1 (stereo not drawn)
experimental-system: TRPM6
readout-kind: %Inh
reported-result: 2

Input `[2H]C([2H])(c1cccc(C(F)(F)F)c1C)n1ccn2c(=O)nc(N3CCOCC3)cc12` . Output %Inh: 53

Input `CC(C)Oc1ccc2c(-c3ccnc(Nc4ccc(N5CCN(C)CC5)cc4)n3)cnn2n1` . Output %Inh: 43

Input `COc1cc2ncn(-c3cc(OCc4sccc4Cl)c(C(N)=O)s3)c2cc1OC` . Output %Inh: 0

Input `O=C(NCCNc1ccnc(Nc2ccc(F)cc2)n1)c1cc2ccccc2s1` . Output %Inh: 11

----------
Tested on: RPS6KA5(Kin.Dom.2-C-terminal)
condition-notes: concentration: 1 μM, replicates: in singlicate; n = 1
We begin with a simple list: items and their reported %Inh.
Provide only the numeric value, understood in %.

The examples below pair each entry with its known result.
molecule: Cc1nnc(-c2ccc3occ(-c4ccc(C(C)O)cc4)c3c2)o1 (centres unmarked)
reported-result: 0
//
molecule: CN(C(=O)c1ccc(-c2cc(-c3c[nH]nc3-c3ccccn3)ccn2)cc1)C1CCOCC1 [GW810083]
reported-result: 0
//
molecule: O=c1cc(N2CCOCC2)nc2n(Cc3cccc(C(F)(F)F)c3)ccn12 [GSK2297543]
reported-result: 6

Input `CN1c2ccc(NCc3ccc(F)cc3)cc2-c2c(cnn2C)S1(=O)=O` . Output %Inh: 0

Input CNc1ncnc2[nH]ncc12 [SKF-18355] . Output %Inh: 17

Input c1ccc(-c2cc(-c3c[nH]nc3-c3ccccn3)ccn2)cc1 [GW576604] . Output %Inh: 3

Input `Cn1ccc2ncnc(Oc3ccc(NC(=O)Nc4ccncc4)c(Cl)c3)c21` . Output %Inh: 0

Input `COc1cc2c(cc1OC[C@@H](O)CO)ncc1c3ccc(C#N)cc3[nH]c21` . Output %Inh: 26

----------
Test system: TXK
condition-notes: concentration: 1 μM, replicates: in singlicate; n = 1
We begin with a simple list: items and their reported %Inh.
Provide only the numeric value, understood in %.

Form field, %Inh with TXK, item `COc1ccc(COc2cc(-n3cnc4ccccc43)sc2C(N)=O)cc1` : 20

Form field, %Inh with TXK, item `COc1ccc(S(=O)(=O)NC2CCN(c3cc(C)nc(Nc4cccc(C#N)c4)n3)CC2)cc1.O=C(O)C(F)(F)F` : 0

Form field, %Inh with TXK, item `COCCNC(=O)c1ccc(-c2cc(C(=O)NC3CC3)cc(F)c2C)cc1` : 18

Form field, %Inh with TXK, item `O=C(NCCCN1CCOCC1)c1cccc(Nc2nccc(Nc3ccc(Oc4ccccc4)cc3)n2)c1` : 0

----------
Test system: PIP5K2C
Construct: gene PIP4K2C
condition-notes: concentration: 1 μM, replicates: in singlicate; n = 1
readout-kind: %Inh (%)
Provide only the numeric value, understood in %.

The examples below pair each entry with its known result.
compound: COc1cc2c(cc1OCCN1CCN(C)CC1)ncc1c3ccc(C#N)cc3[nH]c21
experimental-system: PIP5K2C
readout-kind: %Inh
unit-symbol: %
reported-result: 35

compound: Cc1cccc(-c2nc(-c3ccc(S(C)(=O)=O)cc3)sc2-c2ccncc2)c1
experimental-system: PIP5K2C
readout-kind: %Inh
unit-symbol: %
reported-result: 0

compound: CCc1ccnc(/C=C/c2n[nH]c3cc(Sc4ccccc4C(=O)NC)ccc23)c1
experimental-system: PIP5K2C
readout-kind: %Inh
unit-symbol: %
reported-result: 0

compound: CC(C)(C)n1cnc2c(N)ncnc21 [SKF-97359]
experimental-system: PIP5K2C
readout-kind: %Inh
unit-symbol: %
reported-result: 34

Turning now to a further record.
Form field, %Inh with PIP5K2C, item [2H]C([2H])(c1cccc(C(F)(F)F)c1C)n1ccn2c(=O)nc(N3CCOCC3)cc12 [GSK2336394] : 0

----------
System: TBK1
condition-notes: concentration: 1 μM, replicates: in singlicate; n = 1
Binning scheme for %Inh: category 1: < 9%; category 2: ≥ 9% and < 20%; category 3: ≥ 20%

These recorded examples may help you get a feel for the data.
molecule: O=C(NCCNc1ccnc(Nc2ccc(F)cc2)n1)c1cc2ccccc2s1 [GSK1379874]
cat: category 2

molecule: Cl.Nc1ncnc2occ(-c3ccc(NC(=O)Nc4cc(C(F)(F)F)ccc4F)cc3)c12 [SB-707548]
cat: category 3

molecule: Cc1nnc(-c2ccc(C)c(-c3ccc(C(=O)Nc4ccc(NS(C)(=O)=O)cc4)cc3)c2)o1 [GW702865]
cat: category 2

molecule: Fc1ccc(-c2nn3c(OCC(F)(F)F)cccc3c2-c2ccncc2)cc1 [GW514784]
cat: category 1

molecule: CCCCCc1nc2c(N)ncnc2n1CCCCC [SKF-97255]
cat: category 3

molecule: Cn1cc(-c2ccc3c(c2)CCN3C(=O)Cc2ccccc2Cl)c2c(N)ncnc21 [GSK2608885]
cat: category 2

query: Assign a bin to `CSc1ccc(-c2cc3ncnc(SCC(=O)O)c3s2)cc1`
result: category 1

----------
Tested on: PKN2
condition-notes: concentration: 1 μM, replicates: in singlicate; n = 1
We begin with a simple list: items and their reported %Inh.
Provide only the numeric value, understood in %.

The examples below pair each entry with its known result.
molecule: O=c1cc(N2CCOCC2)nc2n(Cc3cccc4ccccc34)ccn12
reported-result: 0
//
molecule: Cc1nnc(-c2ccc3ncc(-c4ccc(S(C)=O)cc4)n3c2)o1 (stereo not drawn)
reported-result: 0
//
molecule: Cn1cc(-c2ccc3c(c2)CCN3C(=O)Cc2ccccc2Cl)c2c(N)ncnc21
reported-result: 31
//
molecule: O=C(Nc1n[nH]c2cc(-c3cccc(F)c3)ccc12)C1CC1
reported-result: 17
//
molecule: Cc1nnc(-c2ccc3occ(-c4ccc(C(C)O)cc4)c3c2)o1 (stereo not drawn)
reported-result: 0
//
molecule: NS(=O)(=O)CCc1cccc(Nc2nccc(-c3c(-c4cccc(NC(=O)c5c(F)cccc5F)c4)nn4ccccc34)n2)c1
reported-result: 0
//
molecule: CSc1ccc(-c2cc3ncnc(SCC(=O)O)c3s2)cc1
reported-result: 0
//
molecule: CNc1ncnc2[nH]ncc12
reported-result: 2

Turning now to a further record.
Form field, %Inh with PKN2, item `Fc1ccc(-c2ncn(CCCN3CCOCC3)c2-c2ccccn2)cc1` : 9
